Where do the numbers come from? From patent US8148392B2.

Test system: KLF4
assay.overview: KLF4 gene expression by RT-PCR, HT-29
Type: cell-based, human
assay.conditions: HT-29, relative to vehicle control as 1
assay.readout: KLF4 (gene fold increase)
Please answer using a numeric value trailed by its unit.

CC(C)(C)c1ccc2[nH]c(C(C)(C)C)c(-c3nc4c5cccnc5c5ncccc5c4[nH]3)c2c1 5.98 fold
CCc1cccc2c(-c3nc4c5cccnc5c5ncccc5c4[nH]3)c(C(C)(C)C)[nH]c12 5.96 fold
Cc1[nH]c2ccccc2c1-c1nc2c3cccnc3c3ncccc3c2[nH]1 6.5 fold
Cc1[nH]c2ccc(F)cc2c1-c1nc2c3cccnc3c3ncccc3c2[nH]1 8.66 fold

Task item: Identify KLF4 (gene fold increase) associated with the molecule Cc1ccc2[nH]c(C34CC5CC(CC(C5)C3)C4)c(-c3nc4c5cccnc5c5ncccc5c4[nH]3)c2c1
Reply: 6.54 fold

====

Test system: human colon carcinoma HT-29 cells
assay.overview: XTT cell proliferation assay, HT-29
Format: cell-based
assay.conditions: HT-29, XTT, as Example 13, Table 7
assay.readout: IC50

compound	observed.value
CN1CCN(C(=O)Cn2cc(-c3nc4c5cccnc5c5ncccc5c4[nH]3)c3ccccc32)CC1 [Compound 58]	>
Cc1c(-c2nc3c4cccnc4c4ncccc4c3[nH]2)c2ccccc2n1CC(=O)N1CCCC1 [Compound 43]	>5-25< μg/ml
O=C(Cn1cc(-c2nc3c4cccnc4c4ncccc4c3[nH]2)c2ccccc21)N1CCOCC1 [Compound 44]	>5-25<, μg/ml
O=C(Cn1cc(-c2nc3c4cccnc4c4ncccc4c3[nH]2)c2ccccc21)N1CCCC1 [Compound 46]	>5-25< μg/ml
